System: MCF7
ASSAY_METHOD_TEXT: Cytotoxicity against human MCF7 cells at 100 ug/ml after 72 hrs by SRB assay
Assay type: functional
Each entry below carries its recorded Activity.

{"columns": ["COMPOUND", "UNIT_ABBREV", "Activity"],
 "data": [
  ["Cc1ccc(-c2c3c(nc4[nH]c(=S)[nH]c(=S)c24)N(c2ccc(F)cc2)C2(CCCCC2)S3)cc1", "%", 64.2],
  ["Cc1ccc(-c2c(C#N)c(N)nc3c2SC2(CCCCC2)N3c2ccc(F)cc2)cc1", "%", 55.84],
  ["Cc1ccc(C2NOC3=C2SC2(CCCCC2)N3c2ccc(F)cc2)cc1 (configuration not stated)", "%", 56.62],
  ["Cc1ccc(/C=C2/SC3(CCCCC3)N(c3ccc(F)cc3)C2=O)cc1", "%", 61.2],
  ["CC(=O)Nc1nc2c(c(-c3ccc(C)cc3)c1C#N)SC1(CCCCC1)N2c1ccc(F)cc1", "%", 65],
  ["Cc1ccc(-c2c3c(nc4nc(C)[nH]c(=O)c24)N(c2ccc(F)cc2)C2(CCCCC2)S3)cc1", "%", 84],
  ["Cc1ccc(-c2c3c(nc4[nH]c(=S)nc(NN)c24)N(c2ccc(F)cc2)C2(CCCCC2)S3)cc1", "%", 45.62]
]}
